Assayed target: UniProt O96028
Sequence (O96028 whole entry, the tested form may be a part): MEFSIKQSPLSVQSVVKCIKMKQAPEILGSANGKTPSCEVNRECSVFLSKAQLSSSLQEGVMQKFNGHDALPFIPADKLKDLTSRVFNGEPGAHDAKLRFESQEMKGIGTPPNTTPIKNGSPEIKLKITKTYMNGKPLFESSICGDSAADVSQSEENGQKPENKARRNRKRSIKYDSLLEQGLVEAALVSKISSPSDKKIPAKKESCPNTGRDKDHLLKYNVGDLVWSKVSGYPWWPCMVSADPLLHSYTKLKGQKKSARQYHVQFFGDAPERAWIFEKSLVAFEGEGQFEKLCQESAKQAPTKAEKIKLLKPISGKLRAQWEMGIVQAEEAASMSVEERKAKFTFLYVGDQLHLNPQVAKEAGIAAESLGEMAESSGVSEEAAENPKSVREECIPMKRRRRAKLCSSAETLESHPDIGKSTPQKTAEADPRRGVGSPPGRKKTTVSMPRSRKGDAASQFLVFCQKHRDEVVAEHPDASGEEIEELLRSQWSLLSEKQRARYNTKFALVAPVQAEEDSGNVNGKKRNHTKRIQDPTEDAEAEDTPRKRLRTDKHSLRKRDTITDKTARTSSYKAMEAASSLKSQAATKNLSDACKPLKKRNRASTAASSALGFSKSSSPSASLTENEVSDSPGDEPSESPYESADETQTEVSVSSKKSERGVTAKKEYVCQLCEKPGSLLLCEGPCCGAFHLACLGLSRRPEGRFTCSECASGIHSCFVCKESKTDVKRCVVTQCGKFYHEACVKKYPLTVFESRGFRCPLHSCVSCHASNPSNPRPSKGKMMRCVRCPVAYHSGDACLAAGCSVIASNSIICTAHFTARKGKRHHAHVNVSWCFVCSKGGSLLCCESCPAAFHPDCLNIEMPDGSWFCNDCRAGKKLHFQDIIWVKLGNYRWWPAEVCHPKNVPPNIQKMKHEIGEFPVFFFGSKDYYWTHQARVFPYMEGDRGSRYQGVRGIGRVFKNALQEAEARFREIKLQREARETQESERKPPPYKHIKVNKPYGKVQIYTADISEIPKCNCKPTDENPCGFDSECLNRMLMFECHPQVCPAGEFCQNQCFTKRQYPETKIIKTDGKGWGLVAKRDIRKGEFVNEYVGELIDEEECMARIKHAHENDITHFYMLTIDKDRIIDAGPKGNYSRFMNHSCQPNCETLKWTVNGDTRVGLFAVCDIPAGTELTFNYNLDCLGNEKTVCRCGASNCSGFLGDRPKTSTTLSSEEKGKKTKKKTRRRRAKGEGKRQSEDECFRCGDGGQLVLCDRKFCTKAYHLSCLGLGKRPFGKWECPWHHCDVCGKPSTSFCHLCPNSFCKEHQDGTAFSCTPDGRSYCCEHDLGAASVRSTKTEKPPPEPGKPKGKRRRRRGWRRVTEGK
Protocol details: Inhibition of recombinant human NSD2 (941 to 1240 residues) using SAM as substrate incubated for 3 hrs by AlphaLISA assay
pIC50: −log10 of the molar value.
Property measured: pIC50

| Molecule | Assayed target | pIC50 |
| --- | --- | --- |
| O=C1C(NCCC2(O)CCN(C(=O)C3CC3(F)F)CC2)=C(Cl)C(=O)c2ncccc21 (stereo not given) | UniProt O96028 | 5.89 |
| CC#CC(=O)N1CCC2(CC1)CN(C1=C(Cl)C(=O)c3cccnc3C1=O)C2 | UniProt O96028 | 6.12 |
| CC#CC(=O)NC12CC(NC3=C(Cl)C(=O)c4ncccc4C3=O)(C1)C2 | UniProt O96028 | 6.64 |

a: CC(C)(O)[C@H](F)CNC1=C(Cl)C(=O)c2cccnc2C1=O
b: O=C1C(NCCc2c[nH]c3ccccc23)=C(Cl)C(=O)c2ncccc21
Exercise: I'm curious whether a or b has the smaller pIC50 number. Which is it? Field: selected label. Fill in the label of the entry you choose.
Solution: b
(b: 5.64, a: 6.52)
